system: SCC-25; test: drug activity profiling cytotoxicity; type: cell-based; conditions: Homo sapiens; SCC-25 cell line, Head and Neck; read-out: Aza-T-dCyd IC50
ENDPOINT: pIC50
# pIC50 = -log10(concentration in molar units)

SCC-25 / pIC50 / Nc1ncn([C@H]2CC(O)[C@@H](CO)S2)c(=O)n1 (stereo partly shown) : value? 6.90

====

test: Pharmacokinetic evaluation in Mice (Table 4); details: mouse, in vivo, Table 4, PO 3 mg/kg
ENDPOINT: Cmax (ng/mL)
Just the number please, in ng/mL, no unit attached.

Please give the measured Cmax for this compound: Nc1ncn([C@H]2CC(O)[C@@H](CO)S2)c(=O)n1 (stereo partly shown) 256

====

tested on: SK-UT-1; assay: drug activity profiling cytotoxicity; assay type: cell-based; conditions: Homo sapiens; SK-UT-1 cell line, Sarcoma; read-out: Aza-T-dCyd IC50
ENDPOINT: IC50 (nM)
Just the number please, in nM, no unit attached.

SK-UT-1 / IC50 / Nc1ncn([C@H]2CC(O)[C@@H](CO)S2)c(=O)n1 (stereo partly shown) : value? 343

====

experiment: Pharmacokinetic evaluation in Mice (Table 3); format: in vivo; details: mouse, in vivo; Mice, Table 3, PO 1 mg/kg
ENDPOINT: AUC(0-inf) (ng·h/mL)
Just the number please, in ng·h/mL, no unit attached.

Please give the measured AUC(0-inf) for this molecule: Nc1ncn([C@H]2CC(O)[C@@H](CO)S2)c(=O)n1 (stereo partly shown) 112

====

test system: G-361; test: drug activity profiling cytotoxicity; assay type: cell-based; settings: Homo sapiens; G-361 cell line, Skin (Melanoma); read-out: Aza-T-dCyd IC50
ENDPOINT: pIC50
# pIC50 = -log10(concentration in molar units)

Please give the measured pIC50 for this compound: Nc1ncn([C@H]2CC(O)[C@@H](CO)S2)c(=O)n1 (stereo partly shown) 5.97

====

assay: Pharmacokinetic evaluation in Dog; type: in vivo; settings: in vivo; Dog, PO 0.33 mg/kg; read-out: T½ (converted)
ENDPOINT: half-life (min)
Just the number please, in min, no unit attached.

Please give the measured half-life for this compound: Nc1ncn([C@H]2CC(O)[C@@H](CO)S2)c(=O)n1 (stereo partly shown) 140

====

assay: Pharmacokinetic evaluation in Mice (Table 3); format: in vivo; settings: mouse, in vivo; Mice, Table 3, PO 0.5 mg/kg
ENDPOINT: Cmax (ng/mL)
Just the number please, in ng/mL, no unit attached.

Please give the measured Cmax for this compound: Nc1ncn([C@H]2CC(O)[C@@H](CO)S2)c(=O)n1 (stereo partly shown) [Aza-T-dCyd, 4′-thio-5-aza-2′-deoxycytidine] 51.8

====

test system: A549; experiment: drug activity profiling cytotoxicity; type: cell-based; settings: Homo sapiens; A549 cell line, Lung (NSCLC); read-out: Aza-T-dCyd IC50
ENDPOINT: IC50

A549 / IC50 / Nc1ncn([C@H]2CC(O)[C@@H](CO)S2)c(=O)n1 (stereo partly shown) : value? 190 nM

====

test: Pharmacokinetic evaluation in Mice (Table 3); assay type: in vivo; details: mouse, in vivo; Mice, Table 3, IV 1 mg/kg
ENDPOINT: Tmax
Answer with the value and then the unit.

Please give the measured Tmax for this compound: Nc1ncn([C@H]2CC(O)[C@@H](CO)S2)c(=O)n1 (stereo partly shown) 4.98 min

====

assay: Pharmacokinetic evaluation in Rat; format: in vivo; details: in vivo; Rat, PO 3 mg/kg
ENDPOINT: AUC(0-t) (ng·h/mL)
Just the number please, in ng·h/mL, no unit attached.

Please give the measured AUC(0-t) for this compound: Nc1ncn([C@H]2CC(O)[C@@H](CO)S2)c(=O)n1 (stereo partly shown) 2780

====

test system: MES-SA; assay: drug activity profiling cytotoxicity; assay type: cell-based; conditions: Homo sapiens; MES-SA cell line, Sarcoma; read-out: Aza-T-dCyd IC50
ENDPOINT: pIC50
# pIC50 = -log10(concentration in molar units)

Please give the measured pIC50 for this compound: Nc1ncn([C@H]2CC(O)[C@@H](CO)S2)c(=O)n1 (stereo partly shown) [Aza-T-dCyd, 4′-thio-5-aza-2′-deoxycytidine] 6.87

====

assay: Pharmacokinetic evaluation in Mice (Table 4); settings: mouse, in vivo, Table 4, PO 1 mg/kg, read-out: T½ (converted)
ENDPOINT: half-life (h)
Just the number please, in h, no unit attached.

Please give the measured half-life for this compound: Nc1ncn([C@H]2CC(O)[C@@H](CO)S2)c(=O)n1 (stereo partly shown) 1.72

====

assay: Pharmacokinetic evaluation in Rat; assay type: in vivo; details: in vivo; Rat, PO 3 mg/kg
ENDPOINT: AUC(0-inf) (ng·h/mL)
Just the number please, in ng·h/mL, no unit attached.

Please give the measured AUC(0-inf) for this compound: Nc1ncn([C@H]2CC(O)[C@@H](CO)S2)c(=O)n1 (stereo partly shown) 2800

====

assay: Pharmacokinetic evaluation in Mice (Table 4); settings: mouse, in vivo, Table 4, PO 0.5 mg/kg
ENDPOINT: AUC(0-t) (ng·h/mL)
Just the number please, in ng·h/mL, no unit attached.

Please give the measured AUC(0-t) for this compound: Nc1ncn([C@H]2CC(O)[C@@H](CO)S2)c(=O)n1 (stereo partly shown) 118

====

assay: Pharmacokinetic evaluation in Mice (Table 4); conditions: mouse, in vivo, Table 4, PO 3 mg/kg
ENDPOINT: Tmax (min)
Just the number please, in min, no unit attached.

Please give the measured Tmax for this compound: Nc1ncn([C@H]2CC(O)[C@@H](CO)S2)c(=O)n1 (stereo partly shown) 15

====

test: Pharmacokinetic evaluation in Dog; assay type: in vivo; conditions: in vivo; Dog, PO 0.15 mg/kg
ENDPOINT: Tmax (h)
Just the number please, in h, no unit attached.

Please give the measured Tmax for this molecule: Nc1ncn([C@H]2CC(O)[C@@H](CO)S2)c(=O)n1 (stereo partly shown) [Aza-T-dCyd, 4′-thio-5-aza-2′-deoxycytidine] 1

====

assay: Pharmacokinetic evaluation in Rat; type: in vivo; conditions: in vivo; Rat, IV 1 mg/kg
ENDPOINT: Cmax (ng/mL)
Just the number please, in ng/mL, no unit attached.

Please give the measured Cmax for this compound: Nc1ncn([C@H]2CC(O)[C@@H](CO)S2)c(=O)n1 (stereo partly shown) 444

====

test system: MCF7; test: drug activity profiling cytotoxicity; assay type: cell-based; details: Homo sapiens; MCF7 cell line, Breast; read-out: Aza-T-dCyd IC50
ENDPOINT: pIC50
# pIC50 = -log10(concentration in molar units)

Please give the measured pIC50 for this molecule: Nc1ncn([C@H]2CC(O)[C@@H](CO)S2)c(=O)n1 (stereo partly shown) 5.19

====

test: Pharmacokinetic evaluation in Mice (Table 3); type: in vivo; details: mouse, in vivo; Mice, Table 3, PO 1 mg/kg
ENDPOINT: Tmax (min)
Just the number please, in min, no unit attached.

Please give the measured Tmax for this molecule: Nc1ncn([C@H]2CC(O)[C@@H](CO)S2)c(=O)n1 (stereo partly shown) 18

====

assay: Pharmacokinetic evaluation in Mice (Table 4); conditions: mouse, in vivo, Table 4, PO 10 mg/kg
ENDPOINT: Tmax (min)
Just the number please, in min, no unit attached.

Please give the measured Tmax for this compound: Nc1ncn([C@H]2CC(O)[C@@H](CO)S2)c(=O)n1 (stereo partly shown) [Aza-T-dCyd, 4′-thio-5-aza-2′-deoxycytidine] 20

====

test system: HT; assay: drug activity profiling cytotoxicity; type: cell-based; settings: Homo sapiens; HT cell line, B-cell lymphoma; read-out: Aza-T-dCyd IC50
ENDPOINT: pIC50
# pIC50 = -log10(concentration in molar units)

Please give the measured pIC50 for this compound: Nc1ncn([C@H]2CC(O)[C@@H](CO)S2)c(=O)n1 (stereo partly shown) 5.99

====

Tested on: YAPC
Assay: drug activity profiling cytotoxicity
Assay type: cell-based
Conditions: Homo sapiens; YAPC cell line, Pancreas; read-out: Aza-T-dCyd IC50
Protocol: To obtain a biomarker for Aza-T-dCyd, drug activity profiling analysis was performed to evaluate the cytotoxicity of 200 cell lines. The drug responsiveness analysis of Aza-T-dCyd through drug activity profiling and genomic analysis of 200 cell lines confirmed the potent efficacy of Aza-T-dCyd in various solid tumors (Table 2).
ENDPOINT: pIC50
# pIC50 = -log10(concentration in molar units)

Please give the measured pIC50 for this compound: Nc1ncn([C@H]2CC(O)[C@@H](CO)S2)c(=O)n1 (stereo partly shown) 5.98

====

assay: Pharmacokinetic evaluation in Dog; assay type: in vivo; settings: in vivo; Dog, PO 1.5 mg/kg
ENDPOINT: Tmax

Please give the measured Tmax for this molecule: Nc1ncn([C@H]2CC(O)[C@@H](CO)S2)c(=O)n1 (stereo partly shown) 40.2 min

====

assay: Pharmacokinetic evaluation in Rat; format: in vivo; conditions: in vivo; Rat, PO 1 mg/kg
ENDPOINT: Cmax (ng/mL)
Just the number please, in ng/mL, no unit attached.

Please give the measured Cmax for this compound: Nc1ncn([C@H]2CC(O)[C@@H](CO)S2)c(=O)n1 (stereo partly shown) [Aza-T-dCyd, 4′-thio-5-aza-2′-deoxycytidine] 81.9
